Please go through the items and note down their pIC50.
# ASSAYED TARGET: full-length beta-Catenin (Uniprot ID P35222) (Homo sapiens)
# Construct: 10 nM full-length beta-Catenin (Uniprot ID P35222)
# Sequence (P35222 whole entry): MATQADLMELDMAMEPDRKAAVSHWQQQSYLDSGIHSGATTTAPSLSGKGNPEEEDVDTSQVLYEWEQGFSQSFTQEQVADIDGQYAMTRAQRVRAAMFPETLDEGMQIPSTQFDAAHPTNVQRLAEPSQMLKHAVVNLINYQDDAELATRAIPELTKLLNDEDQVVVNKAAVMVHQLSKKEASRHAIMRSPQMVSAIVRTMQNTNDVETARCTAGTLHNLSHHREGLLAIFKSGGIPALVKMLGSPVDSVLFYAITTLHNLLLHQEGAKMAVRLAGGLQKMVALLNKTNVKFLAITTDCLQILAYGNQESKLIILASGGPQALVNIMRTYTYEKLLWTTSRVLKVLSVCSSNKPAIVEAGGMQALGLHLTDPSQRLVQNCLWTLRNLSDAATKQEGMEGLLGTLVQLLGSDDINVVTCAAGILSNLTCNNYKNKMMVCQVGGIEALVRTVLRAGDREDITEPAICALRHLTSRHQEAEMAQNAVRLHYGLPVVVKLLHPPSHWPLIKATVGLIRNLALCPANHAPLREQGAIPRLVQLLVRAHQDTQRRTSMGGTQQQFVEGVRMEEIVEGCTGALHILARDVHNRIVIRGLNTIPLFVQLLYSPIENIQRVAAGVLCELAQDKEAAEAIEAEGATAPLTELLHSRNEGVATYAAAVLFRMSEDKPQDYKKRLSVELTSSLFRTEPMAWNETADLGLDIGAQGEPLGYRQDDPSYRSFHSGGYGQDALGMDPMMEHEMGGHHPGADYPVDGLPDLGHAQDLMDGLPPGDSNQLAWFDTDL
# TEST PROTOCOL: Fluorescence polarization IC50 (beta-catenin / 5FAM-TCF4 10-53 competition)
# Type: binding
# ASSAY CONTEXT: fluorescence polarization; read-out: beta-Catenin FP IC50
// pIC50 here means minus log10 of the molar concentration (mol/L)

Input: What value of pIC50 has been reported for the following molecule? CC(C)C[C@H](NC(=O)[C@]12CCN(C1)C(=O)OCCCC=CCCCC1(CCCC=CCCC(=O)N3CCC[C@@]3(C)C(=O)N[C@@H](CC(=O)O)C(=O)N1)C(=O)N[C@@H](C)C(=O)N[C@@H](CC(=O)O)C(=O)N[C@@H](Cc1cccc(C(=O)O)c1)C(=O)N[C@@H](C)C(=O)N[C@@H](C)C(=O)N[C@@H](Cc1ccccc1)C(=O)N2)C(=O)N[C@@H](Cc1ccsc1)C(=O)N[C@@H](Cc1csc2ccccc12)C(=O)N[C@@H](CCC(N)=O)C(N)=O (some centres unmarked)
Output: 6.12

Input: Then this molecule: CC(=O)N1CCC[C@]12CC=CCCCC1(CCCC=CCCCCCC[C@@](C)(C(=O)N[C@@H](Cc3ccccc3)C(=O)N[C@@H](Cc3csc4ccccc34)C(=O)N[C@@H](CCC(N)=O)C(N)=O)NC(=O)[C@H](C(C)C)NC(=O)[C@H](Cc3ccccn3)NC(=O)[C@H](C)NC(=O)[C@H](C)NC(=O)[C@H](CCC(=O)O)NC(=O)[C@H](CC(=O)O)NC1=O)NC(=O)[C@H](C)NC(=O)[C@H](CC(=O)O)NC2=O (some centres unmarked)
Output: 5.58

Input: Then this molecule: CC(=O)N1CCC[C@]12CC=CCCCC1(CCCC=CCCCOC(=O)N3CC[C@@](C(=O)N[C@@H](Cc4ccsc4)C(=O)N[C@@H](Cc4cccc5ccccc45)C(=O)N[C@@H](CCC(N)=O)C(N)=O)(C3)NC(=O)[C@H]([C@@H](C)O)NC(=O)[C@H](Cc3ccccc3)NC(=O)[C@H](C)NC(=O)[C@H](C)NC(=O)[C@H](CC(=O)O)NC(=O)[C@H](CC(=O)O)NC1=O)NC(=O)[C@H](CC(C)(C)C)NC(=O)[C@H](CC(=O)O)NC2=O (some centres unmarked)
Output: 7.51

Input: Then this molecule: CC(=O)N1CCC[C@]12CC=CCCCC1(CCCC=CCCCOC(=O)N3CC[C@@](C(=O)N[C@@H](Cc4ccsc4)C(=O)N[C@@H](Cc4csc5ccccc45)C(=O)N[C@@H](CCC(=O)N4CCC(N5CCCCC5)CC4)C(N)=O)(C3)NC(=O)[C@H](CC(C)C)NC(=O)[C@H](Cc3ccccc3)NC(=O)[C@H](C)NC(=O)[C@H](C)NC(=O)[C@H](CN(CC(=O)O)CC(F)(F)F)NC(=O)[C@H](CC(=O)O)NC1=O)NC(=O)[C@H](CC(C)(C)C)NC(=O)[C@H](CC(=O)O)NC2=O (some centres unmarked) [I-1798]
Output: 7.92

Input: Then this molecule: CC[C@H](C)[C@@H]1NC(=O)[C@H](CC(=O)O)NC(=O)[C@]2(CC=CCCCC3(CCCC=CCCCCCC[C@@](C)(C(=O)N[C@@H](Cc4ccccc4)C(=O)N[C@@H](Cc4csc5ccccc45)C(=O)N[C@@H](CCC(N)=O)C(N)=O)NC(=O)[C@H](CCC(N)=O)NC(=O)[C@H](Cc4ccccc4)NC(=O)[C@H](Cc4c[nH]c5ccccc45)NC(=O)[C@H](C)NC(=O)[C@H](CCC(=O)O)NC(=O)[C@H](CC(=O)O)NC3=O)NC1=O)CCCN2C(C)=O (some centres unmarked) [I-664]
Output: 6.00

These measurements were taken from patent US20240116985A1.
